Biological target: AChE (Homo sapiens)
Sequence (P22303 32-614): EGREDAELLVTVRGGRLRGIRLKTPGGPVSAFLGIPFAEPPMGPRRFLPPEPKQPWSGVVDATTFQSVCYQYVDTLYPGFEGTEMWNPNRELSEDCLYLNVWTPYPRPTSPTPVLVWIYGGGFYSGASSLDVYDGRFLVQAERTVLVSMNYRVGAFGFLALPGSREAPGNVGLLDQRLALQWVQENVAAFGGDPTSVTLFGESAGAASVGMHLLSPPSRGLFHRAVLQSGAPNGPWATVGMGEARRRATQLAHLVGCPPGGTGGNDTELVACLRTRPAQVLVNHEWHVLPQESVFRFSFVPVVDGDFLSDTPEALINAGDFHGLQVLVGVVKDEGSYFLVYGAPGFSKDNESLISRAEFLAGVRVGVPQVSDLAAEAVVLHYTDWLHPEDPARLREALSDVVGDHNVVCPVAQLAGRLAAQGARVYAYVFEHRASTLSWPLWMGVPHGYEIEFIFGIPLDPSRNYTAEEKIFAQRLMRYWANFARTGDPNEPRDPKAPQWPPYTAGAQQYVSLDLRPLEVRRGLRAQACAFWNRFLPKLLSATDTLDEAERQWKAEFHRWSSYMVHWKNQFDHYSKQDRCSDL
Assay: In vitro AChE inhibitory activity, Ellman's colorimetric method
Format: biochemical
Metric: pIC50
// returns pIC50 (minus log10 of molar concentration), number only

- Compound: "COc1ccc(-c2csc(N3C(=O)C(=Cc4ccc(OC)c(OC)c4)SC3=NCc3ccccc3)n2)cc1"
  Metric: "pIC50"
  Result Number: 6.35
- Compound: "Cc1ccc(-c2csc(N3C(=O)CSC3=NCc3ccccc3)n2)cc1"
  Metric: "pIC50"
  Result Number: 6.73
- Compound: "CCN=C1SCC(=O)N1c1nc(-c2ccc(C)cc2)cs1"
  Metric: "pIC50"
  Result Number: 6.32
- Compound: "CCN=C1SCC(=O)N1c1nc(-c2ccc(OC)cc2)cs1"
  Metric: "pIC50"
  Result Number: 6.46
- Compound: "COc1ccc(-c2csc(N3C(=O)CSC3=NCc3ccccc3)n2)cc1"
  Metric: "pIC50"
  Result Number: 6.82

Query COc1ccc(-c2csc(N3C(=O)C(=Cc4ccc(Cl)cc4Cl)SC3=NCc3ccccc3)n2)cc1 yields pIC50 of 6.73
